Attribute: pEC50
Test system: Human immunodeficiency virus 2
Experiment: Antiviral activity against HIV-2 ROD strain infected in human MT4 cells assessed as reduction in virus-induced cytopathogenicity by MTT assay
Settings: Human immunodeficiency virus 2, ISOLATE ROD
pEC50: −log10 of the molar value.

compound_structure: Cc1ccc(Oc2ccnc(NC3CCN(Cc4n[nH]c5ccccc45)CC3)n2)cc1
pEC50: < 4.49

compound_structure: FC(F)(F)c1ccccc1Oc1ccnc(NC2CCN(Cc3n[nH]c4ccccc34)CC2)n1
pEC50: < 4.82

compound_structure: Clc1cccc(Oc2ccnc(NC3CCN(Cc4n[nH]c5ccccc45)CC3)n2)c1
pEC50: < 4.59

compound_structure: Nc1ccn([C@@H]2CS[C@H](CO)O2)c(=O)n1
pEC50: 7.68

compound_structure: FC(F)(F)c1ccc(Oc2ccnc(NC3CCN(Cc4n[nH]c5ccccc45)CC3)n2)cc1
pEC50: < 4.54

compound_structure: Cc1cccc(Oc2ccnc(NC3CCN(Cc4n[nH]c5ccccc45)CC3)n2)c1
pEC50: < 4.49

compound_structure: Brc1cccc(Oc2ccnc(NC3CCN(Cc4n[nH]c5ccccc45)CC3)n2)c1
pEC50: < 4.66

compound_structure: Cc1cc(C#N)cc(C)c1Oc1ccnc(NC2CCN(Cc3n[nH]c4ccccc34)CC2)n1
pEC50: < 4.80

Incoming: # pEC50 lookup, item FC(F)(F)c1cccc(Oc2ccnc(NC3CCN(Cc4n[nH]c5ccccc45)CC3)n2)c1
Outgoing: < 4.66

Incoming: # pEC50 lookup, item N#Cc1cc(Cl)cc(Oc2ccnc(NC3CCN(Cc4n[nH]c5ccccc45)CC3)n2)c1
Outgoing: < 4.57

Incoming: # pEC50 lookup, item N#Cc1ccc(Oc2ccnc(NC3CCN(Cc4n[nH]c5ccccc45)CC3)n2)cc1
Outgoing: < 4.51

Incoming: # pEC50 lookup, item Clc1ccccc1Oc1ccnc(NC2CCN(Cc3n[nH]c4ccccc34)CC2)n1
Outgoing: < 5.27

Incoming: # pEC50 lookup, item Cc1cccc(C)c1Oc1ccnc(NC2CCN(Cc3n[nH]c4ccccc34)CC2)n1
Outgoing: < 4.74

Incoming: # pEC50 lookup, item Brc1ccccc1Oc1ccnc(NC2CCN(Cc3n[nH]c4ccccc34)CC2)n1
Outgoing: < 5.28

Incoming: # pEC50 lookup, item Cc1cc(Oc2ccnc(NC3CCN(Cc4n[nH]c5ccccc45)CC3)n2)cc(C)c1Cl
Outgoing: < 4.82

Incoming: # pEC50 lookup, item Brc1ccc(Oc2ccnc(NC3CCN(Cc4n[nH]c5ccccc45)CC3)n2)cc1
Outgoing: < 4.62

Incoming: # pEC50 lookup, item Clc1ccc(Oc2ccnc(NC3CCN(Cc4n[nH]c5ccccc45)CC3)n2)cc1
Outgoing: < 4.52

Incoming: # pEC50 lookup, item N#Cc1cccc(Oc2ccnc(NC3CCN(Cc4n[nH]c5ccccc45)CC3)n2)c1
Outgoing: < 4.49

* * *

Experiment: Cytotoxicity against human MT4 cells assessed as inhibition of cell viability by measuring reduction in absorbance at OD540 by MTT assay
Format: cell-based
Binary call on CC50 with cut-off 20 µM: strictly below means 1.0, and equality or higher means 0.0.

compound_structure: FC(F)(F)c1cccc(Oc2ccnc(NC3CCN(Cc4n[nH]c5ccccc45)CC3)n2)c1
category: 0.0

compound_structure: Cc1ccc(Oc2ccnc(NC3CCN(Cc4n[nH]c5ccccc45)CC3)n2)cc1
category: 0.0

compound_structure: N#Cc1cc(Cl)cc(Oc2ccnc(NC3CCN(Cc4n[nH]c5ccccc45)CC3)n2)c1
category: 0.0

Incoming: Given Brc1ccc(Oc2ccnc(NC3CCN(Cc4n[nH]c5ccccc45)CC3)n2)cc1 , is recorded CC50 strictly lower than 20 µM?
Outgoing: 0.0

Incoming: Given Cc1cc(Oc2ccnc(NC3CCN(Cc4n[nH]c5ccccc45)CC3)n2)cc(C)c1Cl , is recorded CC50 strictly lower than 20 µM?
Outgoing: 1.0

Incoming: Given Cc1cccc(Oc2ccnc(NC3CCN(Cc4n[nH]c5ccccc45)CC3)n2)c1 , is recorded CC50 strictly lower than 20 µM?
Outgoing: 0.0

Incoming: Given Clc1ccccc1Oc1ccnc(NC2CCN(Cc3n[nH]c4ccccc34)CC2)n1 , is recorded CC50 strictly lower than 20 µM?
Outgoing: 1.0

Incoming: Given Brc1ccccc1Oc1ccnc(NC2CCN(Cc3n[nH]c4ccccc34)CC2)n1 , is recorded CC50 strictly lower than 20 µM?
Outgoing: 1.0

Incoming: Given N#Cc1ccc(Oc2ccnc(NC3CCN(Cc4n[nH]c5ccccc45)CC3)n2)cc1 , is recorded CC50 strictly lower than 20 µM?
Outgoing: 0.0

* * *

Experiment: Selectivity index, ratio of CC50 for cytotoxicity against human MT4 cells reduction in cell viability by MTT assay to EC50 for antiviral activity against wild type HIV-1 strain IIIB infected in human MT4 cells assessed as reduction in virus-induced cytopathogenicity by MTT assay
Type: toxicity, cell-based
Details: read-out: Selectivity Index
quantity_kind: selectivity ratio

Use the examples below as a reference point.
molecule: FC(F)(F)c1cccc(Oc2ccnc(NC3CCN(Cc4n[nH]c5ccccc45)CC3)n2)c1
quantity_kind: selectivity ratio
assay_value: 40

molecule: Clc1ccccc1Oc1ccnc(NC2CCN(Cc3n[nH]c4ccccc34)CC2)n1
quantity_kind: selectivity ratio
assay_value: 146

molecule: Cc1cccc(Oc2ccnc(NC3CCN(Cc4n[nH]c5ccccc45)CC3)n2)c1
quantity_kind: selectivity ratio
assay_value: 82

Incoming: # selectivity ratio lookup, item N#Cc1cc(Cl)cc(Oc2ccnc(NC3CCN(Cc4n[nH]c5ccccc45)CC3)n2)c1
Outgoing: 12

Incoming: # selectivity ratio lookup, item Brc1ccccc1Oc1ccnc(NC2CCN(Cc3n[nH]c4ccccc34)CC2)n1
Outgoing: 171

Incoming: # selectivity ratio lookup, item Cc1cn([C@H]2C[C@H](N=[N+]=[N-])[C@@H](CO)O2)c(=O)[nH]c1=O [ZIDOVUDINE]
Outgoing: > 100

Incoming: # selectivity ratio lookup, item Cc1cccc(C)c1Oc1ccnc(NC2CCN(Cc3n[nH]c4ccccc34)CC2)n1
Outgoing: 2090

Incoming: # selectivity ratio lookup, item FC(F)(F)c1ccc(Oc2ccnc(NC3CCN(Cc4n[nH]c5ccccc45)CC3)n2)cc1
Outgoing: 62

Incoming: # selectivity ratio lookup, item Brc1ccc(Oc2ccnc(NC3CCN(Cc4n[nH]c5ccccc45)CC3)n2)cc1
Outgoing: 114

Incoming: # selectivity ratio lookup, item Clc1cccc(Oc2ccnc(NC3CCN(Cc4n[nH]c5ccccc45)CC3)n2)c1
Outgoing: 93

Incoming: # selectivity ratio lookup, item Cc1ccc(Oc2ccnc(NC3CCN(Cc4n[nH]c5ccccc45)CC3)n2)cc1
Outgoing: 229

Incoming: # selectivity ratio lookup, item Cc1cc(C#N)cc(C)c1Oc1ccnc(NC2CCN(Cc3n[nH]c4ccccc34)CC2)n1
Outgoing: 2500

Incoming: # selectivity ratio lookup, item Brc1cccc(Oc2ccnc(NC3CCN(Cc4n[nH]c5ccccc45)CC3)n2)c1
Outgoing: 88

Incoming: # selectivity ratio lookup, item Cc1cc(C#N)cc(C)c1Oc1nc(Nc2ccc(C#N)cc2)nc(N)c1Br [ETRAVIRINE]
Outgoing: > 28

Incoming: # selectivity ratio lookup, item N#Cc1cccc(Oc2ccnc(NC3CCN(Cc4n[nH]c5ccccc45)CC3)n2)c1
Outgoing: 21

Incoming: # selectivity ratio lookup, item FC(F)(F)c1ccccc1Oc1ccnc(NC2CCN(Cc3n[nH]c4ccccc34)CC2)n1
Outgoing: 50

Incoming: # selectivity ratio lookup, item Clc1ccc(Oc2ccnc(NC3CCN(Cc4n[nH]c5ccccc45)CC3)n2)cc1
Outgoing: 130

Incoming: # selectivity ratio lookup, item Cc1cc(Oc2ccnc(NC3CCN(Cc4n[nH]c5ccccc45)CC3)n2)cc(C)c1Cl
Outgoing: 41

Incoming: # selectivity ratio lookup, item Cc1ccnc2c1NC(=O)c1cccnc1N2C1CC1 [NEVIRAPINE]
Outgoing: > 1440

Incoming: # selectivity ratio lookup, item N#Cc1ccc(Oc2ccnc(NC3CCN(Cc4n[nH]c5ccccc45)CC3)n2)cc1
Outgoing: 397

Incoming: # selectivity ratio lookup, item O=C1Nc2ccc(Cl)cc2[C@@](C#CC2CC2)(C(F)(F)F)O1 [EFAVIRENZ]
Outgoing: > 2420

Incoming: # selectivity ratio lookup, item Nc1ccn([C@@H]2CS[C@H](CO)O2)c(=O)n1 [LAMIVUDINE]
Outgoing: > 417

* * *

Test: Cytotoxicity against human MT4 cells assessed as inhibition of cell viability by measuring reduction in absorbance at OD540 by MTT assay
Type: cell-based
quantity_kind: CC50

compound_structure: FC(F)(F)c1ccc(Oc2ccnc(NC3CCN(Cc4n[nH]c5ccccc45)CC3)n2)cc1
assay_value: 29 µM

compound_structure: Brc1cccc(Oc2ccnc(NC3CCN(Cc4n[nH]c5ccccc45)CC3)n2)c1
assay_value: 22 µM

compound_structure: Cc1ccnc2c1NC(=O)c1cccnc1N2C1CC1
assay_value: > 4.6 µM

compound_structure: Cc1cc(C#N)cc(C)c1Oc1ccnc(NC2CCN(Cc3n[nH]c4ccccc34)CC2)n1
assay_value: 16 µM

compound_structure: Cc1cccc(C)c1Oc1ccnc(NC2CCN(Cc3n[nH]c4ccccc34)CC2)n1
assay_value: 18 µM

compound_structure: Clc1cccc(Oc2ccnc(NC3CCN(Cc4n[nH]c5ccccc45)CC3)n2)c1
assay_value: 26 µM

Then there is this molecule:
Incoming: # CC50 lookup, item Nc1ccn([C@@H]2CS[C@H](CO)O2)c(=O)n1
Outgoing: > 7.5 µM

These entries and their values trace back to ChEMBL document CHEMBL4680126.
